# PROTOCOL_TEXT: Beagle feeding experiment: pharmacokinetic parameters and relative bioavailability
# Assay type: in vivo
# EXPERIMENTAL_CONDITIONS: both sexes, dog, blood, po, 20 mg/kg, gastric gavage 20 mg/kg, suspension in soybean oil, average, read-out: AUC0-t
# Procedure: Sample 1 and Sample 2 and Sample 3 obtained by Example 1, Example 2, Example 3 are used for beagle feeding experiment respectively, and the reduced coenzyme Q10 concentration in blood of feed beagle is determined, a basic pharmacokinetic parameters and relative bioavailability is calculated. […] Peak-reaching time Tmax and peak-reaching concentration Cmax use measured values. […]

>  <MOLECULE>
COc1c(O)c(C)c(C/C=C(\C)CC/C=C(\C)CC/C=C(\C)CC/C=C(\C)CC/C=C(\C)CC/C=C(\C)CC/C=C(\C)CC/C=C(\C)CC/C=C(\C)CCC=C(C)C)c(O)c1OC [Sample 3, reduced coenzyme Q10]

>  <AUC0-t>
2.77 µg·h/mL

$$$$

###

# PROTOCOL_TEXT: Beagle feeding experiment: pharmacokinetic parameters and relative bioavailability
# Format: in vivo
# EXPERIMENTAL_CONDITIONS: both sexes, dog, blood, po, 20 mg/kg, gastric gavage 20 mg/kg, suspension in soybean oil, average

>  <MOLECULE>
COc1c(O)c(C)c(C/C=C(\C)CC/C=C(\C)CC/C=C(\C)CC/C=C(\C)CC/C=C(\C)CC/C=C(\C)CC/C=C(\C)CC/C=C(\C)CC/C=C(\C)CCC=C(C)C)c(O)c1OC [Sample 3, reduced coenzyme Q10]

>  <AUC(0-inf) / ng·h/mL>
2660

$$$$

###

# PROTOCOL_TEXT: Beagle feeding experiment: pharmacokinetic parameters and relative bioavailability
# Format: in vivo
# EXPERIMENTAL_CONDITIONS: both sexes, dog, blood, po, 20 mg/kg, gastric gavage 20 mg/kg, suspension in soybean oil, average
READOUT_NAME: half-life (h)

>  <INPUT_SMILES>
COc1c(O)c(C)c(C/C=C(\C)CC/C=C(\C)CC/C=C(\C)CC/C=C(\C)CC/C=C(\C)CC/C=C(\C)CC/C=C(\C)CC/C=C(\C)CC/C=C(\C)CCC=C(C)C)c(O)c1OC

>  <READOUT_NAME>
half-life

>  <NUMBER>
4.76

$$$$

###

# PROTOCOL_TEXT: Beagle feeding experiment: pharmacokinetic parameters and relative bioavailability
# Format: in vivo
# EXPERIMENTAL_CONDITIONS: both sexes, dog, blood, po, 20 mg/kg, gastric gavage 20 mg/kg, suspension in soybean oil, average, read-out: MRT

>  <INPUT_SMILES>
COc1c(O)c(C)c(C/C=C(\C)CC/C=C(\C)CC/C=C(\C)CC/C=C(\C)CC/C=C(\C)CC/C=C(\C)CC/C=C(\C)CC/C=C(\C)CC/C=C(\C)CCC=C(C)C)c(O)c1OC

>  <MRT>
8.35 h

$$$$

###

# PROTOCOL_TEXT: Beagle feeding experiment: pharmacokinetic parameters and relative bioavailability
# Format: in vivo
# EXPERIMENTAL_CONDITIONS: both sexes, dog, blood, po, 20 mg/kg, gastric gavage 20 mg/kg, F=(AUC0-t, Sample 2 or 3/AUC0-t, Sample 1)×100%, average
READOUT_NAME: bioavailability (%)

>  <COMPOUND>
COc1c(O)c(C)c(C/C=C(\C)CC/C=C(\C)CC/C=C(\C)CC/C=C(\C)CC/C=C(\C)CC/C=C(\C)CC/C=C(\C)CC/C=C(\C)CC/C=C(\C)CCC=C(C)C)c(O)c1OC [Sample 3, reduced coenzyme Q10]

>  <NUMBER>
74.7

$$$$

Source: patent US10028914B2
